These entries and their values trace back to ChEMBL document CHEMBL2375338.

protocolSummary: Cytotoxicity against human HPC cells after 48 hrs by MTT assay
Format: cell-based
Measured CC50 at 48 h values are reported for all entries that follow.
Please state the number and follow it with the unit.

## Input // returns reported CC50 at 48 h for input O=C1O[C@@H]2O[C@@H]3COC(=O)c4cc(O)c(O)c(O)c4-c4c(cc(O)c(O)c4O)C(=O)O[C@H]3[C@H](OC(=O)c3cc(O)c(O)c(O)c3)[C@H]2OC(=O)c2cc(O)c(O)c(O)c2Oc2c(O)cc(cc2O)C(=O)O[C@@H]2O[C@@H]3COC(=O)c4cc(O)c(O)c(O)c4-c4c(cc(O)c(O)c4O)C(=O)O[C@H]3[C@H](OC(=O)c3cc(O)c(O)c(O)c3)[C@H]2OC(=O)c2cc(O)c(O)c(O)c2Oc2c(O)cc1cc2O
## Output 88.3 µM

## Input For the compound O=C1O[C@@H]2O[C@@H]3COC(=O)c4cc(O)c(O)c(O)c4-c4c(cc(O)c(O)c4O)C(=O)O[C@H]3[C@H](OC(=O)c3cc(O)c(O)c(O)c3)[C@H]2OC(=O)c2cc(O)c(O)c(O)c2Oc2c(O)cc(cc2O)C(=O)O[C@@H]2O[C@H](CO)[C@@H](O)[C@H](OC(=O)c3cc(O)c(O)c(O)c3)[C@H]2OC(=O)c2cc(O)c(O)c(O)c2Oc2cc1cc(O)c2O , what CC50 at 48 h is on record?
## Output 81 µM

## Input Fill in the blank: the reported CC50 at 48 h of O=C1O[C@@H]2O[C@@H]3COC(=O)c4cc(O)c(O)c(O)c4-c4c(cc(O)c(O)c4O)C(=O)O[C@H]3[C@H](OC(=O)c3cc(O)c(O)c(O)c3)[C@H]2OC(=O)c2cc(O)c(O)c(O)c2Oc2cc(cc(O)c2O)C(=O)O[C@@H]2O[C@H](CO)[C@@H](O)[C@H](OC(=O)c3cc(O)c(O)c(O)c3)[C@H]2OC(=O)c2cc(O)c(O)c(O)c2Oc2c(O)cc1cc2O is ____.
## Output 80.3 µM

## Input Bench note: what CC50 at 48 h did O=C1O[C@@H]2O[C@@H]3COC(=O)c4cc(O)c(O)c(O)c4-c4c(cc(O)c(O)c4O)C(=O)O[C@H]3[C@H](OC(=O)c3cc(O)c(O)c(O)c3)[C@H]2OC(=O)c2cc(O)c(O)c(O)c2Oc2cc(cc(O)c2O)C(=O)O[C@@H]2O[C@@H]3COC(=O)c4cc(O)c(O)c(O)c4-c4c(cc(O)c(O)c4O)C(=O)O[C@H]3[C@H](OC(=O)c3cc(O)c(O)c(O)c3)[C@H]2OC(=O)c2cc(O)c(O)c(O)c2Oc2c(O)cc1cc2O show?
## Output 84.3 µM

====

# CC50 at 48 h annotations
protocolSummary: Cytotoxicity against human HGF cells after 48 hrs by MTT assay
Type: cell-based
Quick reminder: number only, in µM, skip the unit.

O=C1O[C@@H]2O[C@@H]3COC(=O)c4cc(O)c(O)c(O)c4-c4c(cc(O)c(O)c4O)C(=O)O[C@H]3[C@H](OC(=O)c3cc(O)c(O)c(O)c3)[C@H]2OC(=O)c2cc(O)c(O)c(O)c2Oc2cc(cc(O)c2O)C(=O)O[C@@H]2O[C@@H]3COC(=O)c4cc(O)c(O)c(O)c4-c4c(cc(O)c(O)c4O)C(=O)O[C@H]3[C@H](OC(=O)c3cc(O)c(O)c(O)c3)[C@H]2OC(=O)c2cc(O)c(O)c(O)c2Oc2c(O)cc1cc2O    95

Kindly review the next molecule as well.
## Input Need CC50 at 48 h, item O=C1O[C@@H]2O[C@@H]3COC(=O)c4cc(O)c(O)c(O)c4-c4c(cc(O)c(O)c4O)C(=O)O[C@H]3[C@H](OC(=O)c3cc(O)c(O)c(O)c3)[C@H]2OC(=O)c2cc(O)c(O)c(O)c2Oc2c(O)cc(cc2O)C(=O)O[C@@H]2O[C@@H]3COC(=O)c4cc(O)c(O)c(O)c4-c4c(cc(O)c(O)c4O)C(=O)O[C@H]3[C@H](OC(=O)c3cc(O)c(O)c(O)c3)[C@H]2OC(=O)c2cc(O)c(O)c(O)c2Oc2c(O)cc1cc2O
## Output 93.6

====

System: HSC-3
protocolSummary: Cytotoxicity against human HSC3 cells after 48 hrs by MTT assay
Format: functional
particulars: HSC-3, 48 h
# CC50 values compiled below
Lab book: enter the figure in µM, no units written.

# count of solved cases: 3
O=C1O[C@@H]2O[C@@H]3COC(=O)c4cc(O)c(O)c(O)c4-c4c(cc(O)c(O)c4O)C(=O)O[C@H]3[C@H](OC(=O)c3cc(O)c(O)c(O)c3)[C@H]2OC(=O)c2cc(O)c(O)c(O)c2Oc2c(O)cc(cc2O)C(=O)O[C@@H]2O[C@@H]3COC(=O)c4cc(O)c(O)c(O)c4-c4c(cc(O)c(O)c4O)C(=O)O[C@H]3[C@H](OC(=O)c3cc(O)c(O)c(O)c3)[C@H]2OC(=O)c2cc(O)c(O)c(O)c2Oc2c(O)cc1cc2O    47.8
O=C1O[C@@H]2O[C@@H]3COC(=O)c4cc(O)c(O)c(O)c4-c4c(cc(O)c(O)c4O)C(=O)O[C@H]3[C@H](OC(=O)c3cc(O)c(O)c(O)c3)[C@H]2OC(=O)c2cc(O)c(O)c(O)c2Oc2cc(cc(O)c2O)C(=O)O[C@@H]2O[C@H](CO)[C@@H](O)[C@H](OC(=O)c3cc(O)c(O)c(O)c3)[C@H]2OC(=O)c2cc(O)c(O)c(O)c2Oc2c(O)cc1cc2O    20.8
O=C1O[C@@H]2O[C@@H]3COC(=O)c4cc(O)c(O)c(O)c4-c4c(cc(O)c(O)c4O)C(=O)O[C@H]3[C@H](OC(=O)c3cc(O)c(O)c(O)c3)[C@H]2OC(=O)c2cc(O)c(O)c(O)c2Oc2c(O)cc(cc2O)C(=O)O[C@@H]2O[C@H](CO)[C@@H](O)[C@H](OC(=O)c3cc(O)c(O)c(O)c3)[C@H]2OC(=O)c2cc(O)c(O)c(O)c2Oc2cc1cc(O)c2O    21.9

## Input I have this compound here, O=C1O[C@@H]2O[C@@H]3COC(=O)c4cc(O)c(O)c(O)c4-c4c(cc(O)c(O)c4O)C(=O)O[C@H]3[C@H](OC(=O)c3cc(O)c(O)c(O)c3)[C@H]2OC(=O)c2cc(O)c(O)c(O)c2Oc2cc(cc(O)c2O)C(=O)O[C@@H]2O[C@@H]3COC(=O)c4cc(O)c(O)c(O)c4-c4c(cc(O)c(O)c4O)C(=O)O[C@H]3[C@H](OC(=O)c3cc(O)c(O)c(O)c3)[C@H]2OC(=O)c2cc(O)c(O)c(O)c2Oc2c(O)cc1cc2O , and I need its recorded CC50.
## Output 24.3

====

Tested on: HL-60
protocolSummary: Cytotoxicity against human HL60 cells after 48 hrs by trypan blue exclusion assay
particulars: HL-60, 48 h
# Lookup of reported CC50 keyed by entry
Numbers only here, please. The scale is µM.

## Input Which CC50 reading was recorded for the compound O=C1O[C@@H]2O[C@@H]3COC(=O)c4cc(O)c(O)c(O)c4-c4c(cc(O)c(O)c4O)C(=O)O[C@H]3[C@H](OC(=O)c3cc(O)c(O)c(O)c3)[C@H]2OC(=O)c2cc(O)c(O)c(O)c2Oc2c(O)cc(cc2O)C(=O)O[C@@H]2O[C@@H]3COC(=O)c4cc(O)c(O)c(O)c4-c4c(cc(O)c(O)c4O)C(=O)O[C@H]3[C@H](OC(=O)c3cc(O)c(O)c(O)c3)[C@H]2OC(=O)c2cc(O)c(O)c(O)c2Oc2c(O)cc1cc2O ?
## Output 55.9

## Input Would you mind telling me what CC50 value was observed for O=C1O[C@@H]2O[C@@H]3COC(=O)c4cc(O)c(O)c(O)c4-c4c(cc(O)c(O)c4O)C(=O)O[C@H]3[C@H](OC(=O)c3cc(O)c(O)c(O)c3)[C@H]2OC(=O)c2cc(O)c(O)c(O)c2Oc2c(O)cc(cc2O)C(=O)O[C@@H]2O[C@H](CO)[C@@H](O)[C@H](OC(=O)c3cc(O)c(O)c(O)c3)[C@H]2OC(=O)c2cc(O)c(O)c(O)c2Oc2cc1cc(O)c2O ?
## Output 70.8

## Input Recorded CC50 of O=C1O[C@@H]2O[C@@H]3COC(=O)c4cc(O)c(O)c(O)c4-c4c(cc(O)c(O)c4O)C(=O)O[C@H]3[C@H](OC(=O)c3cc(O)c(O)c(O)c3)[C@H]2OC(=O)c2cc(O)c(O)c(O)c2Oc2cc(cc(O)c2O)C(=O)O[C@@H]2O[C@@H]3COC(=O)c4cc(O)c(O)c(O)c4-c4c(cc(O)c(O)c4O)C(=O)O[C@H]3[C@H](OC(=O)c3cc(O)c(O)c(O)c3)[C@H]2OC(=O)c2cc(O)c(O)c(O)c2Oc2c(O)cc1cc2O , please.
## Output 54.2

## Input # query: CC50 of entry O=C1O[C@@H]2O[C@@H]3COC(=O)c4cc(O)c(O)c(O)c4-c4c(cc(O)c(O)c4O)C(=O)O[C@H]3[C@H](OC(=O)c3cc(O)c(O)c(O)c3)[C@H]2OC(=O)c2cc(O)c(O)c(O)c2Oc2cc(cc(O)c2O)C(=O)O[C@@H]2O[C@H](CO)[C@@H](O)[C@H](OC(=O)c3cc(O)c(O)c(O)c3)[C@H]2OC(=O)c2cc(O)c(O)c(O)c2Oc2c(O)cc1cc2O
## Output 62
